From: ChEMBL document CHEMBL1201862

Hi there, I'd appreciate the recorded GI50 for every entry that follows.
- Tested on: HOP-92
- assay name: NCI tumour cell line growth inhibition, 48 h
Calls of active or inactive are those of the source. No stated cut-off is given here; in the data, active = GI50 up to about 1.1 µM and inactive = higher.

Asked: Fill blank: measured GI50 of the compound CN(O)C(=O)/C=C/c1ccc(OCc2cccc(Cl)c2)cc1 is ____.
Given back: 24.3 µM (inactive)

Asked: Fill blank: measured GI50 of the compound O=C1C[C@H](CCC(=O)OCc2ccccc2)NC(=O)C[C@H](CCC(=O)OCc2ccccc2)NC(=O)C[C@H](CCC(=O)OCc2ccccc2)N1 is ____.
Given back: 3.92 µM (inactive)

Asked: Fill blank: measured GI50 of the compound CC(C)(C)OC(=O)NNCC(O)COc1ccccc1 (stereo not drawn) is ____.
Given back: > 100 µM (inactive)

---

Hi there, I'd appreciate the recorded GI50 for every entry that follows.
- System: IGROV-1
- assay name: NCI tumour cell line growth inhibition, 48 h
Activity calls are given as the source filed them. No stated cut-off is given here; in the data, active = GI50 up to about 1.1 µM and inactive = higher.

Asked: Fill blank: measured GI50 of the molecule CC(=O)OC1C(CCl)OC(N=[N+]=[N-])C(OC(C)=O)C1OC(C)=O (stereo unspecified) is ____.
Given back: > 100 µM (inactive)

Asked: Fill blank: measured GI50 of the molecule CCCCOC(=O)Nc1ccc(S(=O)(=O)Nc2c(Cl)cccc2Cl)cc1 is ____.
Given back: 30.4 µM (inactive)

Asked: Fill blank: measured GI50 of the molecule O=C(O)CCC(NC(=O)c1ccc(Oc2nc3ccccc3nc2-c2ccccc2)cc1)C(=O)O (stereo unspecified) is ____.
Given back: > 100 µM (inactive)

Asked: Fill blank: measured GI50 of the molecule CC(C)(C)C(=O)OC12/C(=N/O)CCCCCC1c1ccccc12 (stereo unspecified) is ____.
Given back: 16.1 µM (inactive)

Asked: Fill blank: measured GI50 of the molecule CCOC(=O)Cn1c(C)nc2nn(Cc3ccccc3)cc2c1=O is ____.
Given back: > 100 µM (inactive)

Asked: Fill blank: measured GI50 of the molecule CCC1C(=O)OCc2c1cc1n(c2=O)CCC12OCCO2 (stereo unspecified) is ____.
Given back: > 100 µM (inactive)

Asked: Fill blank: measured GI50 of the molecule COC(=O)C(CC(=O)Nc1ccc(C)cc1)C(=O)C(=O)Nc1c(C(C)C)cccc1C(C)C (stereo unspecified) is ____.
Given back: > 100 µM (inactive)

Asked: Fill blank: measured GI50 of the molecule Clc1sc(Cl)c2c1[C@H](Br)C[C@@H]2Cl is ____.
Given back: 13.2 µM (inactive)

Asked: Fill blank: measured GI50 of the molecule CC(C)NC(=O)OCc1nnn2c1CCC2 is ____.
Given back: > 100 µM (inactive)

Asked: Fill blank: measured GI50 of the molecule C=C(/C=C/C=C(/CCC=C(C)C)COC(C)=O)[C@@H]1CC[C@]2([C@H](CCCO)/C(=C(/C)C=O)CC[C@]2(C)O)[C@@H]1O is ____.
Given back: 17.2 µM (inactive)

Asked: Fill blank: measured GI50 of the molecule CC(C(=O)n1ccnc1)N1c2ccccc2Sc2ccccc21 (stereo unspecified) is ____.
Given back: > 100 µM (inactive)

---

- Tested on: KM12
- assay name: NCI tumour cell line growth inhibition, 48 h
Active and inactive are the calls of the source. Cut-off read from the data, not from the text of the source: active = GI50 up to about 1.1 µM and inactive = higher.
Respond using exactly one of the listed classes: t = active, f = inactive

Asked: Hi, sorry to bother you, what did the test record for Cc1nc2c(nc1Cl)nc(Oc1ccc(Cl)cc1)c1ccccc12 ?
Given back: f

Asked: Hi, sorry to bother you, what did the test record for O=C(OCCN=c1c2ccccc2ccc2ccccc12)c1ccc([N+](=O)[O-])cc1 ?
Given back: f

Asked: Hi, sorry to bother you, what did the test record for CC(C)=CCOc1cc(NC(=S)c2ccsc2C)ccc1Cl ?
Given back: f

Asked: Hi, sorry to bother you, what did the test record for CC(C)(C)C(=O)OC12/C(=N/O)CCCCCC1c1ccccc12 (configuration not stated) ?
Given back: f

Asked: Hi, sorry to bother you, what did the test record for CNC(=O)c1cccc2c(Nc3ccc(NS(C)(=O)=O)cc3OC)c3cccc(C)c3nc12 ?
Given back: t

Asked: Hi, sorry to bother you, what did the test record for CCOC(=O)C1C(c2ccco2)C2(C#N)C(=N)OC1(C)C2(C#N)C#N (configuration not stated) ?
Given back: f

Asked: Hi, sorry to bother you, what did the test record for Cc1ccc(S(=O)(=O)CN2C(=O)C(c3ccccc3)(c3ccccc3)C23OC(c2ccc(Cl)cc2)=CC3=O)cc1 (configuration not stated) ?
Given back: f

---

- Test system: UACC-257
- assay name: NCI tumour cell line growth inhibition, 48 h
Activity calls are given as the source filed them. No stated cut-off is given here; in the data, active = GI50 up to about 1.1 µM and inactive = higher.
Respond using exactly one of the listed classes: y = active, n = inactive

Asked: Hi, sorry to bother you, what did the test record for CC1CCC2(CC1)N=C1CCC(C)CC1C1(CCC(C)CC1)N2 (stereo unspecified) ?
Given back: n

Asked: Hi, sorry to bother you, what did the test record for C[N+](C)(C)CC(=O)N/N=C(\C(=O)NC1=C(Cl)C(=O)c2ccccc2C1=O)C(C#N)c1csc(-c2ccc([N+](=O)[O-])cc2)n1 (stereo unspecified) ?
Given back: n

Asked: Hi, sorry to bother you, what did the test record for O=C(Cn1c(C(=O)/C=C/c2ccc(Cl)c(Cl)c2)nc2ccccc21)c1ccccc1 ?
Given back: n

Asked: Hi, sorry to bother you, what did the test record for CC(=O)O[C@H]1CC[C@@]2(C)[C@H](CC[C@@H]3[C@@H]2CC[C@]2(C)[C@@H](c4ccc(=O)oc4)C[C@H]4O[C@]342)C1 ?
Given back: y

Asked: Hi, sorry to bother you, what did the test record for CCCc1c(O)nc2ccccc2c1O ?
Given back: n

Asked: Hi, sorry to bother you, what did the test record for O=C1c2ccccc2C(=O)C2NC(CCCCCSSCCCCCC3=NC4C(=O)c5ccccc5C(=O)C4N3)=NC12 (stereo unspecified) ?
Given back: n

Asked: Hi, sorry to bother you, what did the test record for C/C(=N\Nc1cc(CN2CCCC2)c(-c2ccc(Cl)cc2)nn1)C(=O)O ?
Given back: n

Asked: Hi, sorry to bother you, what did the test record for Fc1ccc(C(OCCN2CC3CC2CN3CCCc2ccccc2)c2ccc(F)cc2)cc1 (stereo unspecified) ?
Given back: n

Asked: Hi, sorry to bother you, what did the test record for Cc1nc(N)sc1C(=O)/C=C/c1ccc(/C=C/C(=O)c2sc(NC(=O)CCCCCCCCC(=O)Nc3nc(C)c(C(=O)/C=C/c4ccc(/C=C/C(=O)c5sc(N)nc5C)cc4)s3)nc2C)cc1 ?
Given back: n

Asked: Hi, sorry to bother you, what did the test record for CC(C)(C)OC(=O)NCCNCCNc1ccccc1 ?
Given back: n

Asked: Hi, sorry to bother you, what did the test record for NNc1ncnc2cccc(Cl)c12 ?
Given back: n

Asked: Hi, sorry to bother you, what did the test record for O=[N+]([O-])C1=Cc2c(O)ccc(O)c2C2OC=CC12 (stereo unspecified) ?
Given back: n

Asked: Hi, sorry to bother you, what did the test record for CN(C)C(=S)/N=c1\ssc(=S)n1-c1ccccc1 ?
Given back: n

Asked: Hi, sorry to bother you, what did the test record for COC(=O)C(NC(=O)OC(C)(C)C)P(=O)(OC)OC (stereo unspecified) ?
Given back: n

Asked: Hi, sorry to bother you, what did the test record for O=C(O)CCC(NC(=O)c1ccc(Oc2nc3ccccc3nc2-c2ccccc2)cc1)C(=O)O (stereo unspecified) ?
Given back: n

Asked: Hi, sorry to bother you, what did the test record for COc1ccc2[nH]cc(CCNC(C)=O)c2c1 ?
Given back: n

Asked: Hi, sorry to bother you, what did the test record for Cn1cc2ccccc2c1-c1nc(F)nc(Oc2ccc3c(c2)CC[C@@H]2C3CC[C@@]3(C)C2C[C@H](O)[C@@H]3O)n1 (stereo partly specified) ?
Given back: n

Asked: Hi, sorry to bother you, what did the test record for CCOC(=O)c1cn(-c2ccc([N+](=O)[O-])cc2)c(=S)n2c1nc1ccccc12 ?
Given back: n

Asked: Hi, sorry to bother you, what did the test record for O=C(Nc1ccc2[nH]c(C(=O)N3CC(CCl)c4c3cc([N+](=O)[O-])c3ccccc43)cc2c1)Nc1ccc2[nH]c(C(=O)N3CC(CCl)c4c3cc([N+](=O)[O-])c3ccccc43)cc2c1 (stereo unspecified) ?
Given back: n

Asked: Hi, sorry to bother you, what did the test record for CC1=NN(c2cccc(Cl)c2)C2(SCC(=O)N2c2nc3ccccc3s2)/C1=C\c1ccc(N(C)C)cc1 (stereo unspecified) ?
Given back: n

Asked: Hi, sorry to bother you, what did the test record for COC1C2C=CC(C2)[C@H]1[N+](=O)[O-] (stereo partly specified) ?
Given back: n

Asked: Hi, sorry to bother you, what did the test record for Cc1c2n(c3ccccc13)CC1C2N(C)OC1(C)C (stereo unspecified) ?
Given back: n

Asked: Hi, sorry to bother you, what did the test record for CN(Cc1cnc2nc(N)nc(N)c2n1)c1ccc(C(=O)NCCCS(=O)(=O)O)cc1 ?
Given back: n

Asked: Hi, sorry to bother you, what did the test record for NNC(=O)CCC(NS(=O)(=O)c1ccc(Cl)cc1)C(=O)NN (stereo unspecified) ?
Given back: n

Asked: Hi, sorry to bother you, what did the test record for Cc1c(Cc2ccccc2)n(COCCCO)c(=O)[nH]c1=O ?
Given back: n

Asked: Hi, sorry to bother you, what did the test record for N/N=C1\CCCc2c1no[n+]2[O-] ?
Given back: n
